Test system: HOP-62
Experiment: NCI tumour cell line growth inhibition, 48 h
Active and inactive are the calls of the source. Cut-off read from the data, not from the text of the source: active = GI50 up to about 1.1 µM and inactive = higher.
In this exercise, the only acceptable responses are label 1 = active, label 0 = inactive

Recorded test outcome, item O=C1C(=O)N(c2ccc(Cl)c(Cl)c2)C(=O)C(=O)C1c1nc2ccccc2s1
label 0

How was COc1ccc(NC(=O)C/C(C)=N\N=C(N)N)c([N+](=O)[O-])c1 classified in this test?
label 0

Could you check what this test reported for C=C1C(=O)C2(C)OC2(C)C1C(=O)O (centres undefined) ?
label 0

Check the results log: what was the call for CCOc1ccc(OCC)c([P+](c2ccccc2)(c2ccccc2)c2ccccc2)c1 ?
label 1

Could you please tell me the result logged for COC(=O)N/N=C(\C)c1sc(-c2nc(C)c(/C(C)=N/NC(=O)OC)s2)nc1C in this assay?
label 0

Assay outcome for N#Cc1cc([N+](=O)[O-])ccc1NC(=O)C(=O)C(C(=O)c1ccc2ccccc2c1)C1OCc2ccccc21 (centres undefined) : what was it?
label 0

For [N-]=[N+]=Nc1c([N+](=O)[O-])c(Cl)nc2ccccc12 , what call appears in the results of this test?
label 0

Please state the recorded outcome for this compound: O=C1O[C@H]2[C@@H]3OC(=O)c4cc(O)c(O)c(O)c4-c4c(cc(O)c(O)c4O)C(=O)OC[C@H]2O[C@@H](OC(=O)c2cc(O)c(O)c(O)c2)[C@@H]3OC(=O)c2cc(O)c(O)c3c2[C@@H]2C1=CC(=O)C(O)(O)C2(O)O3 (some centres undefined)
label 0

How was CNc1nc2c(C)ccc3nc(N(C)C)nc-3c2n1C classified in this test?
label 0

Recorded test call requested for Cc1nc(N)c(-c2ccccc2)s1
label 0

// param item: Cc1cc2cc3c(cc2c(-c2ccc(N)cc2)n1)OCO3 ; yields the recorded call
label 0

Call for entry C/C(=N\NS(=O)(=O)c1ccc(C)cc1)c1c(O)cc(C)oc1=O :
label 0

Call for entry NC1=NC(c2ccc(Cl)cc2)N(c2ccc(S(N)(=O)=O)cc2)C(N)=N1 (centres undefined) :
label 0

For COc1ccc(/N=C2\C(=N/c3ccc(OC)cc3)N(S(=O)(=O)c3ccccc3)C(=S)N2c2ccccc2)cc1 , which call appears in the assay record?
label 0

State the result this test recorded for Cc1cc(/N=N/c2ccc(/N=N/c3c(O)c(S(=O)(=O)O)cc4cc(S(=O)(=O)O)ccc34)cc2C)ccc1/N=N/c1ccc2cc(S(=O)(=O)O)cc(S(=O)(=O)O)c2c1 .
label 0

Could you check what this test reported for C(CCc1nnc2c(n1)CCCC2)Cc1nnc2c(n1)CCCC2 ?
label 0

State the result this test recorded for CCc1ccccc1NC(=O)C1=C(C)NC(C)=C(C(=O)Nc2ccccc2CC)C1c1ccccc1Cl .
label 0

Name the outcome recorded for COc1cccc(/C=C2\CCC(C)(CN(C)C)C2=O)c1 (centres undefined) in the assay.
label 0

I'd appreciate the recorded outcome for COc1cc(C[S+]2CCCC2)c(SC)cc1C[S+]1CCCC1 from this test.
label 0

Answer briefly: the call reported for O=c1[nH]c2ccc(O)cc2o1 in this assay.
label 0

State the result this test recorded for CN(C)/C=N/c1nc2c(ncn2C2OC(CO)C(O)C2O)c(=O)[nH]1 (centres undefined) .
label 0

What outcome does the record of this test show for CCC(=O)/C(=C\I)c1ccccc1 ?
label 0

Tell me the recorded outcome of this test for C=C[C@@H](OCOCC[Si](C)(C)C)[C@@H](CC)OC(CCCOC(=O)C(C)(C)C)OC (some centres undefined) .
label 0

Which outcome was assigned to Cc1ccc2nc(CN(CCO)CCO)cc(=O)n2c1 in this test?
label 0

Check the results log: what was the call for CCOC(=O)/C(C(=O)Nc1cccc(C(F)(F)F)c1)=C(/N)N1CCOCC1 ?
label 0

Test call, this compound: CC(C)(Cl)C(Cl)CC/C(CBr)=C(\Cl)CBr (centres undefined)
label 0

Test call, this compound: CC(O)(c1ccccc1)c1nccc2ccccc12 (centres undefined)
label 0

Lab log entry: CC/C(C)=C1\CCC(CN2CCOCC2)C1=O (centres undefined) — outcome as called in the assay?
label 0

Entry O=[N+]([O-])c1ccc(/C=C(/c2ccc([N+](=O)[O-])o2)S(=O)(=O)c2ccccc2)o1 : call = ?
label 0

Hey, what did the test say about C=CCOC(=O)CCCCCCCCCCCCCCCOC(=O)C1=C(CCC[C@@H](C)O[Si](C)(C)C(C)(C)C)NC(=O)N2[C@H](CC3(CC/C=C\[C@H](CC)O[Si](C(C)C)(C(C)C)C(C)C)OCCO3)CC[C@H]12 ?
label 0

Which result was noted for this compound in the test: Cc1c(/C=N/NC(=S)Nc2ccccc2)c(=O)n(-c2ccccc2)n1C
label 0

Outcome? Nc1nc(NNc2ccc(Cl)c(Cl)c2)cc(=O)[nH]1
label 0

Which result was noted for this compound in the test: O=S(=O)(O)CCCc1cccc2ccccc12
label 0

Could you please tell me the result logged for CC1(C)N=C(N)N=C(N)N1c1cccc(OCc2cccc([N+](=O)[O-])c2)c1 in this assay?
label 0

Would you mind telling me which call this test gave COc1ccc(C(OCC2OC(n3ccc(Oc4c(F)c(F)c(F)c(F)c4F)nc3=O)CC2OP(OCCC#N)N(C(C)C)C(C)C)(c2ccccc2)c2ccc(OC)cc2)cc1 (centres undefined) ?
label 0

Could you please tell me the result logged for Clc1ccc(/N=c2\oc3ccccc3cc2-c2nc3ccccc3[nH]2)c(Cl)c1 in this assay?
label 0

Assay result, entry COc1cc(C2SCC(=O)N2c2ccc(-c3ccc(-n4c(-c5ccccc5)nc5ccccc5c4=O)cc3)cc2)ccc1O (centres undefined) — outcome?
label 0

Recorded test outcome, item O=c1c(-c2nc3ccccc3c3ccccc3c2=O)nc2ccccc2c2ccccc12
label 0

State the result this test recorded for CCO/C=C(\C(=O)OC)S(=O)(=O)c1ccc(C)cc1 .
label 0
